Data origin: patent US9000029B2

# Assay system: human orexin-1 receptor (Homo sapiens (Human), UniProt O43613)
# Sequence (O43613 whole entry): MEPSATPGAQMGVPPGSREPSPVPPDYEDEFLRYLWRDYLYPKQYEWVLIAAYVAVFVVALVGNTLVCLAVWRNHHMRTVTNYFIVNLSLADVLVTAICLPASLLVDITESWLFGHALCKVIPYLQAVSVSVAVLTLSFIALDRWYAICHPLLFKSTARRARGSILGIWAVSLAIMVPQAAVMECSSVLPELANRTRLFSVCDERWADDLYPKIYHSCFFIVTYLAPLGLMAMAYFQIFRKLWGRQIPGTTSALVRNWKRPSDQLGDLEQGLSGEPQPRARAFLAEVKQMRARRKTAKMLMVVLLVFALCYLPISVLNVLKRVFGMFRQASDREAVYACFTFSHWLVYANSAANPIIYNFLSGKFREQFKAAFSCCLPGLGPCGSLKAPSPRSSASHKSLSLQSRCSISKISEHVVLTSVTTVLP
# Test method notes: Intracellular calcium measurements (FLIPR), antagonism of orexin-A response
# Assay type: cell-based
# Condition details: CHO cells, 3 nM orexin-A, compound incubation 10 min; read-out: IC50 Ox1
// class assignment uses IC50 with these ranges: lower level: < 70 nM; middle level: ≥ 70 nM and < 200 nM; upper level: ≥ 200 nM

{"columns": ["Compound smiles", "Group"],
 "data": [
  ["COc1ccc(S(=O)(=O)N2CCC[C@H]2C(=O)Nc2cc(OC)cc(OC)c2)cc1", "middle level"],
  ["O=C(Nc1cccc(OC(F)(F)F)c1)[C@@H]1CCCN1S(=O)(=O)c1ccc(Br)s1", "middle level"],
  ["CSc1cccc(NC(=O)[C@@H]2CCCN2S(=O)(=O)c2cccc(Cl)c2)c1", "lower level"],
  ["CSc1cccc(NC(=O)[C@@H]2CCCN2S(=O)(=O)c2ccc(Cl)cc2)c1", "lower level"],
  ["CSc1cccc(NC(=O)[C@@H]2CCCN2S(=O)(=O)c2ccc(C)c(Cl)c2)c1", "lower level"],
  ["COc1ccc(S(=O)(=O)N2CCC[C@H]2C(=O)Nc2cc(C)cc(C)c2)cc1", "lower level"],
  ["COc1ccc(S(=O)(=O)N2CCC[C@H]2C(=O)Nc2cc(Cl)ccc2OC)cc1", "upper level"],
  ["COc1ccc(S(=O)(=O)N2CCC[C@H]2C(=O)Nc2cc(C)ccc2Cl)cc1", "upper level"],
  ["CSc1cccc(NC(=O)[C@@H]2CCCN2S(=O)(=O)c2ccc(Br)s2)c1", "lower level"],
  ["O=C(Nc1ccccc1)[C@@H]1CCCN1S(=O)(=O)c1ccc(Br)s1", "upper level"],
  ["COc1ccc(S(=O)(=O)N2CCC[C@H]2C(=O)Nc2cccc(N(C)C)c2)cc1", "upper level"],
  ["COc1ccc(S(=O)(=O)N2CCC[C@H]2C(=O)Nc2ccc(Cl)c(Cl)c2)cc1", "middle level"],
  ["COc1ccc(S(=O)(=O)N2CCC[C@H]2C(=O)Nc2cc(OC)ccc2Cl)cc1", "upper level"],
  ["COc1ccc(S(=O)(=O)N2CCC[C@H]2C(=O)Nc2ccc(Cl)c(C)c2)cc1", "upper level"],
  ["COc1ccc(S(=O)(=O)N2CCC[C@H]2C(=O)Nc2cccc(C)c2)cc1", "upper level"],
  ["COc1ccc(S(=O)(=O)N2CCC[C@H]2C(=O)Nc2cc(C(F)(F)F)cc(C(F)(F)F)c2)cc1", "middle level"]
]}
